Assign apparent KD of K4 kissing-loop reporter to each entry below.
System: K4 kissing-loop RNA reporter;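 note: bound reporter read as fluorescence of individual clusters on recovered sequencing chips by microscopy, with normalized cluster intensities fitted with a binding model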
protocol_details: apparent KD of K4 kissing-loop reporter; higher = weaker reporter binding
measurement_setup: Eterna round: R107; input ligand: FMN 200 uM
One number for each entry, in nM.

The cases that follow already have their apparent KD of K4 kissing-loop reporter on record.
{"columns": ["seq", "observed_property", "units_of_measure", "reported_value"],
 "data": [
  ["UUAAUAAUUCAAGGAUAUGUUUUCUAUUUCGAGUGAUGUUCGGAAUUAAUAAAUUUAAAAGAUUAUACAGAAGGUGAUGGAUAGU [Cynwulf-mod#4]", "apparent KD of K4 kissing-loop reporter", "nM", 114],
  ["AAGGGCGAGGUAACGUGGAUAUCUCGUCGCAAGGAUAUCUGGAAACAGAGAAGGUGCUACAUUACCGGCAGUGAUGUUGCUGACC", "apparent KD of K4 kissing-loop reporter", "nM", 887],
  ["AACUGUCAAGGACAACAUUACUGAGGUGAUACCAGCAUCGAAAGAUGCCCUUGGCAGCACUAACUUGCAGUGAUGUUGCAAGUAA [BrourdMod 2 - Jieux - Exclusion - Theophylline A]", "apparent KD of K4 kissing-loop reporter", "nM", 211],
  ["GCCGUAGAUUGAAGGAGCGAGUAGGCUCACUUGCGAAGUGAAUAGCAGAGUGAUGUUCUGUCUCAGGUAGGUCGCAAUCUACGGC", "apparent KD of K4 kissing-loop reporter", "nM", 701],
  ["UGUCAUUGGUCGGCCGCCACUUCAUAAAGAGUGAUGUUCUAAAAGACGGAUCGAAAGAUCUGUCGAAGGACCGGGACCGAUGACU [TrypBS 18 #SwitchBubble #StaticStem]", "apparent KD of K4 kissing-loop reporter", "nM", 1410],
  ["UGUAUGUGAUUUGAUACCAGACCAGGUGGAGGAAUCUGAGUGAUGUUCAGGUAGGUUUGGGUCCCUUGGCAGCAAAUCGCAUACU [KL-SSTheoB18]", "apparent KD of K4 kissing-loop reporter", "nM", 173]
]}

For each listed entry, give its apparent KD of K4 kissing-loop reporter.
1. GAGAUAGCGACGGCCGCCACUAGUGAUGUUAGUGCGGGUAGAUAGAUACUUGAACAGAAAUGACGUAGGACCGGGUCAGAUAGAG [#02 K4 Tryptophan B Exclusion]
2. AGACUACUGAUAGGAUAUAACAUACUAGCUCGUAUACCAAAGGUAUACGAGCACCUUCUAGUGAUGUUAGAAGGGUCGGUAGUCA [Omei KL FMN B Exc B v3]
3. UUGGCAGUGAUGUUGCCAGAGCUCACCGAAGGAGCGCGUGAAAACGCAGGUAGGUCGCGGUAGCGGAGUGAUUCUCCGCGAGGGC [Same State Arginine A GF 21]
4. CGGCCCGGCGCGGCCGCCACUGUGCCUGGGCGCUUGCCGAGUGAUGUUCGUCGGCGGUCGGGUGGCAGGACCGGGCGCCGGUCCG [BDazzled - #26 SS Tryptophan B]

[A]
[162, 301, 44.5, 137]

Here are 7 sequences. What values of apparent KD of K4 kissing-loop reporter were reported for them?
1. GAGGUACAGGCGGCCGCCACUAGUGAUGUUAGUGAUAGAAGAUAUAGUAAAUAUCGGCAUUUAGAUAGGACCGGGCCUGGUGGUG [ffdfcmullin]
2. UGCAUGCUUGUAGUGAUGUUACAAGAUGAUACCAGUGCUUUUUUGCACCCUUGGCAGCGUCAUAGUGCAUGCACGUCGAAAGACG
3. GUAGCACUUGGUAGUGAUGUUACCAAGGACAAGGAUAUCAUCUCAAUGAGAAGGUGUCCUUGGUAACAGCUACGGGAAUAUCCCA [Omei KL FMN A Exc D v2]
4. UGUGUUUACCUGACUCAGUGAUGUUGAGAAGGAGCGUGCGAAGGCACAGGUAGGUCGCUCAACCUAAAUUCAGGUGAGCACUAAA
5. GGUGCUGUCUGUGCCGCCCUCCUCGUCCCUCGAGGACCGGUACGGCCGCCACUCGAGUGAUGUUCGGGUAGCGAUCCCUGCUAGC [Bdazzled - #18 Exc. Tryptophan A]
6. UCGGCAAAGUCGGCCGCCACUCCGGGCCCUAUAAAUGGGCGCAGUGAUGUUGCGGCUAGGCCUCUGAGGACCGGGACUUUGUAGA [Gebive]
7. AGGAGCGUGGGAUGGAAAUCGCACGCUCCUCGAGGACCGGUACGGCCGCCACUCGCUCGCGCCGAGUGAUGUUCGGCCGGCGAAG [#2 Same State - Tryptophan A Attempt #15 (HarryS)]

[A]
[296, 219, 275, 249, 275, 114, 579]
